Sourced from the supplement of paper PMC3334620

Target: Ylr278c (UniProt Q05854)
Sequence (Q05854 whole entry): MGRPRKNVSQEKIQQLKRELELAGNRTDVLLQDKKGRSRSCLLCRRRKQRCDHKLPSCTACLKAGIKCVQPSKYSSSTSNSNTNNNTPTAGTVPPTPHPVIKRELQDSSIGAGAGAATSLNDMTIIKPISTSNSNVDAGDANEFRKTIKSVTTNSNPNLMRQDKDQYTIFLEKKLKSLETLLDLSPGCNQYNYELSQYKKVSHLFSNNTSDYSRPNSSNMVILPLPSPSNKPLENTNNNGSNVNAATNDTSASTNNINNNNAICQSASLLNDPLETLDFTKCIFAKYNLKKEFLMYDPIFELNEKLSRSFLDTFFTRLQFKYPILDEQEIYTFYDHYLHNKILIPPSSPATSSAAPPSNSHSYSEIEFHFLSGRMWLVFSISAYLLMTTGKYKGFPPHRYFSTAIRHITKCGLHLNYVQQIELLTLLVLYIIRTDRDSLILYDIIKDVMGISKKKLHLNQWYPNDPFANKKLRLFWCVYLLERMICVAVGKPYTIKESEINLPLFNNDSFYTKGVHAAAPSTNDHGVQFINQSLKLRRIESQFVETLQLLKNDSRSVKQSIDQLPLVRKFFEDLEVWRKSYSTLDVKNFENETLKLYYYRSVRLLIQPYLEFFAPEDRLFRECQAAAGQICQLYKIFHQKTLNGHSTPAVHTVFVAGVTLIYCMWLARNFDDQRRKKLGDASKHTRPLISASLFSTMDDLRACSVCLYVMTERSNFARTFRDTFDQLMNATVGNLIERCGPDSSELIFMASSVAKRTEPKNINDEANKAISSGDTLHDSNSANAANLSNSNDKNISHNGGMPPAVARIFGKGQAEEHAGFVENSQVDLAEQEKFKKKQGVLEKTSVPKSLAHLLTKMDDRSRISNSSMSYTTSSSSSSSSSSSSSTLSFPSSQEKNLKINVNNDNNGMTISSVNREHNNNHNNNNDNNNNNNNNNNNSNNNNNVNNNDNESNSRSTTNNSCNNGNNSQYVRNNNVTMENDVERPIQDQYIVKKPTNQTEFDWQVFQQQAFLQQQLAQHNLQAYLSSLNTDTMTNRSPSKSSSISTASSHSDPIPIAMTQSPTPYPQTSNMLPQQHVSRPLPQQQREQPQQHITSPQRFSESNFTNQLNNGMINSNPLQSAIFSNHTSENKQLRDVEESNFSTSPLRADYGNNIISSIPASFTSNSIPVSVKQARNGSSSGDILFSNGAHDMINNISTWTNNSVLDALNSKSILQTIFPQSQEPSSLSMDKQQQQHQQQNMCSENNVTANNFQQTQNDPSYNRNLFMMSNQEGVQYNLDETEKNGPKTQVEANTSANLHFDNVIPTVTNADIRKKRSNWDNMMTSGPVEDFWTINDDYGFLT
Experiment: PBM E-score (8-mer binding enrichment) (E-score (-0.5 to 0.5)); higher = stronger / more preferred TF binding
Conditions: protein concentration: 200 nM; construct: GST-DNA-binding domain
The full ranking holds about 33,000 sequences; the median of “E-score (-0.5 to 0.5)” is about -0.054, and the highest 2% start at about 0.39. The full list was thinned out, with the highest values kept by preference.

seq	PBM E-score
TGATCTAA	-0.15
CCGGAAGG	0.387
GGTTTCAC	0.0826
GCCCTTCC	-0.0379
AGGAGTTA	0.232
GGGTCGCA	0.139
ATGCTGGC	-0.147
CACCGACC	0.192
CCTCCCGA	0.0701
CTCCGACC	0.458
ACTGAGGC	0.105
ATCCGACC	0.234
ATCTGTGC	-0.167
GTCAGCAA	-0.18
ACCTAACC	0.0688
GAAGAGAC	0.0662
CACTGTAC	-0.378
ACTACAAA	-0.0603
GGGGAATA	0.141
TGGGCCCA	0.026
TACAGTGA	-0.253
CAACTTCC	0.22
ACGGACTC	0.304
ACGGAATA	0.357
AGAAGGAT	-0.269
CGGGACTC	0.341
ACACCGCT	0.00228
AAAAGATC	-0.0655
CTCCGACA	0.438
CCTCCTGA	-0.172
CTGAGAAG	-0.149
CCCCGACA	0.301
CTCGACCA	-0.232
CGCAGGGC	0.049
AAGGTGGG	-0.161
ACAGGCAA	-0.209
ACTAGAAT	-0.0455
ACGCTACT	0.0556
GAGTGAGC	-0.125
ATCCGACA	0.382
AGCAGACG	-0.00216
AAGTAGGA	-0.313
ACACCCCG	0.241
ACCGATAA	0.269
AATTTCCG	0.448
AACAGTTC	-0.0219
TTAAAAAA	-0.12
ACGGAATC	0.32
CCAGGCAC	-0.0214
GCGGACTA	0.384
GAAGCCAA	0.0199
CATGCCGG	0.368
AATGCCGT	0.381
AATGGGCC	0.0902
AGAATTCC	0.283
CTGGAATC	-0.0172
CTCCTATC	-0.0262
CGGAGTTA	0.493
CTGAGTTC	0.0225
CGAGCTGC	-0.00491
AGGAGTTC	0.109
ATCGCCAT	-0.0309
GTCCGACA	0.393
TAGATAAA	-0.0204
AGGTCCAG	-0.113
CCGGAATC	0.435
GGAATTCC	0.441
ACTCAAAG	-0.129
CTGCTTTA	0.0716
GCGGAATA	0.396
GTAAAGAA	-0.0759
ACCCTAAG	-0.173
ACACTAAC	0.0293
ACGGACTA	0.315
CCGGACTC	0.43
CAAAGCTA	-0.093
AATGCCGC	0.352
TCCGATAA	0.428
CCGGACTA	0.458
CCCGAGAA	0.293
ATTTTCCG	0.421
AATGCCGA	0.392
CGGTCCGA	0.455
CCTCGACG	-0.00055
GACCTCAA	-0.226
CCCTGTCA	-0.228
CAGAGGAC	-0.187
ATTTTCCA	0.0304
GGCCGACA	0.248
AATTTCCC	0.114
AGCAAGAC	-0.0712
